Target: Heat shock factor protein 1 (Mus musculus, UniProt P38532)
Sequence (P38532 whole entry): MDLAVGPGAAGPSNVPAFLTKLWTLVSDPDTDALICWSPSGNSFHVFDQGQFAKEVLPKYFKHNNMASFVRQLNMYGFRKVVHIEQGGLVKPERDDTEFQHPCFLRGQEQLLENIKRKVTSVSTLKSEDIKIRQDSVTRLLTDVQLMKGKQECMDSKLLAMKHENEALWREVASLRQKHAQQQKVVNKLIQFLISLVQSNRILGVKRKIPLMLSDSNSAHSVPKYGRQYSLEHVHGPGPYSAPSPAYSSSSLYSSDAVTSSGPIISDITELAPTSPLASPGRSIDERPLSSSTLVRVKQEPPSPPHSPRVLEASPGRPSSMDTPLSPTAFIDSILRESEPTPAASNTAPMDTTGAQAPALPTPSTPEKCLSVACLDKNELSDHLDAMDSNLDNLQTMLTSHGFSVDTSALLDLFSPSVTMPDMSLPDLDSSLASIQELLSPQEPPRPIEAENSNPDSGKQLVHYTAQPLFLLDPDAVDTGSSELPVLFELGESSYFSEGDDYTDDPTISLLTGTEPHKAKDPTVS
Test: decrease of HSF1-responsive luciferase luminescence – cell-based, NIH3T3, dose retest, confirmation (AID 2382);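 further: NIH3T3 fibroblasts with HSF1-driven luciferase reporter stressed by proteasome inhibitor MG132; luminescence from HSF1-driven luciferase expression after 8 hours of MG132 stress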
Assay type: functional
Activity calls are given as the source filed them. No stated cut-off is given here; in the data, actives have a measured EC50 and inactives only a lower limit.
Items are presented alongside their recorded EC50.
MEASURED PARAMETER: EC50

* COc1cccc(-n2nnc3c(=O)n(Cc4ccccc4Cl)cnc32)c1 | > 195 µM (not active)
* COc1cccc(-c2cc3nc4c(c(NCC(C)(C)CN(C)C)n3n2)CCCC4)c1 | 0.775 µM (active)
* O=C(Nc1ccc(Cl)cc1)C1CCCN1C(=O)NCc1ccccc1 (centres undefined) | > 195 µM (not active)
* CC(C)(C)c1ccc(-c2cc(-c3ccccc3O)n[nH]2)cc1 | 1.81 µM (active)
* O=C(Cn1nc(-c2ccc(Cl)cc2)ccc1=O)NCC1CCCO1 (centres undefined) | > 195 µM (not active)
* Cc1cc(=O)oc2c(C)c(OC(C)C(=O)NCCCN3CCOCC3)ccc12 (centres undefined) | > 195 µM (not active)
* Fc1ccc(-n2cc(CNCCc3ccccn3)c(-c3ccccc3Cl)n2)cc1 | > 195 µM (not active)
* Cc1cccc2c(C(=O)N3CCN(c4ccccn4)CC3)cc(-c3cccc(Br)c3)nc12 | > 195 µM (not active)
* CC(C)c1ccc2oc(=O)cc(CN3CCCCC3)c2c1 | > 195 µM (not active)

Sourced from ChEMBL document CHEMBL1201862
